Items are presented alongside their recorded composite z-score.
Assay: binders from COS7 lysate, DM2A8 probe, primary screen, torsin A project, cell lysate, small-molecule microarray, fluorescence 635/667 (AID 1065)
Details: higher = more signal, COS7 lysate expressing mutant human TOR1A

| smiles.entry | composite z-score |
| --- | --- |
| CO[C@H]1COC(=O)CC=C[C@@H](C)[C@H](OC)COC(=O)[C@@H]2CCCN2C(=O)CC=C[C@@H]1C | 2.11 |
| CCOC(=O)NN=C1C[C@@H](O)[C@@H](O)[C@@H]2[C@@H]3C(=O)N(c4ccc(F)cc4F)C(=O)[C@@H]3CC[C@@H]12 | 0.415 |
| CCCNC(=O)OC[C@H]1O[C@H](CCON=C(C)CCN2CCc3nc(CC)c(CC)cc3C2)C=C[C@@H]1Oc1ccc(OC)cc1 | 1.59 |
| COC(=O)CC=C[C@@H](C)[C@@H](C=NOCC[C@@H]1C=C[C@H](OC(C)=O)[C@@H](COC(C)=O)O1)NS(=O)(=O)c1ccc(C)cc1 | 1.86 |

* * *

Target: Fibroblast growth factor 10 (Homo sapiens)
Assay: FGF10 binders on small-molecule microarrays, primary screen, biochemical, small-molecule microarray, 635 nm fluorescence (AID 1102)
Settings: FGF10 binding, fluorescence 635 nm, higher = more signal
Returns 1 (yes) if the recorded composite z-score is greater than or equal to 0.6, and 0 (no) otherwise.

| compound | label |
| --- | --- |
| CC(C)CON=C1C[C@@H](O)[C@@H](O)[C@@H]2[C@@H]3C(=O)N(c4cccc(Oc5ccccc5)c4)C(=O)[C@@H]3CC[C@@H]12 | 1 (yes) |
| C#CCCCON=C1C[C@@H](O)[C@@H](O)[C@@H]2[C@@H]3C(=O)N(CCC(=O)OCC)C(=O)[C@@H]3CC[C@H]12 | 1 (yes) |
| CCOC(=O)NN=C1C[C@@H](O)[C@@H](O)[C@@H]2[C@@H]3C(=O)N(c4ccc(F)cc4F)C(=O)[C@@H]3CC[C@@H]12 | 0 (no) |
| CCCNC(=O)OC[C@H]1O[C@H](CCON=C(C)CCC(=O)OC[C@H]2O[C@H](c3ccccc3)C=C[C@@H]2Oc2ccc(OC)cc2)C=C[C@@H]1Oc1ccc(OC)cc1 | 0 (no) |
| CCOC(=O)[C@H](Cc1ccccc1)NC(=O)CCC1CC(OC(=O)NCCc2ccc(F)cc2)CC2(CCCC(COC(=O)NCc3ccccc3)O2)O1 (some centres not stated) | 1 (yes) |
| O=C1[C@H]2[C@H]3[C@H](O)[C@H](O)CC(=NOC[C@@H](O)COCc4ccco4)[C@H]3CC[C@H]2C(=O)N1Cc1ccccc1 | 0 (no) |
| CO[C@H]1COC(=O)CC=C[C@H](C)COC(=O)[C@@H](C)NC(=O)CC=C[C@@H]1C | 0 (no) |
| CCOC(=O)[C@H](Cc1ccccc1)NC(=O)CCC1CC(OC(=O)NCc2cccc3ccccc23)CC2(CCCC(COC(=O)NCC(c3ccccc3)c3ccccc3)O2)O1 (some centres not stated) | 1 (yes) |
| COC(=O)CC=C[C@@H](C)[C@@H](C=NOC[C@H]1O[C@H](c2ccccc2)C=C[C@@H]1Oc1ccc(OC)cc1)OC | 0 (no) |
| CC(CCN1CCCCc2nc(C)c(C)cc21)=NOC[C@@H](C)[C@H](OCc1ccccc1)C(C)C | 0 (no) |
| O=C(NN=C1C[C@@H](O)[C@@H](O)[C@@H]2[C@@H]3C(=O)N(Cc4ccccc4)C(=O)[C@@H]3CC[C@@H]12)OCc1ccccc1 | 0 (no) |
| CC(CCN1CCCc2nc(C)c(C)cc21)=NO[C@@H](C)c1cc(-c2c(C)cc(C)cc2C)no1 | 0 (no) |
| CC(=O)OC[C@H]1O[C@@H](ON=C(C)CCN2CCCc3nc(C)c(C)cc32)[C@H](OC(C)=O)[C@@H](OC(C)=O)[C@@H]1OC(C)=O | 1 (yes) |
| CON=C1[C@H]2CCn3c(=O)n(-c4ccccc4)c(=O)n3[C@H]2[C@H](O)[C@@H]2O[C@H]12 | 0 (no) |
| CCOC(=O)NN=C1C[C@@H](O)[C@@H](O)[C@@H]2[C@@H]3C(=O)N([C@@H](C)c4ccccc4)C(=O)[C@@H]3CC[C@H]12 | 0 (no) |
| CCC=CCCC(OC(=O)c1ccc(Br)cc1)C1=CCCCC1=O (configuration not stated) | 1 (yes) |
| CC(CCN1CCc2nc(-c3ccccc3)c(-c3ccccc3)cc2C1)=NOC[C@@H](O)COCc1ccco1 | 0 (no) |

* * *

System: Human papillomavirus type 1a protein E7 (residues 44-93)
Assay: HPV1a E7 fragment binders on microarrays, primary screen, biochemical, small-molecule microarray, residues 44-93, 635 nm fluorescence (AID 1108);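 also: E7 fragment applied at 1 µg/mL in TBST for 1 h at 4 C; score combines spot fluorescence with its signal to noise ratio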
Conditions: small-molecule microarray binding, fluorescence 635 nm; higher = more signal

| smiles.entry | composite z-score |
| --- | --- |
| CC(CCN1CCCCc2nc(C)c(C)cc21)=NO[C@@H](C)c1cn([C@H](CO)Cc2ccccc2)nn1 | 0.271 |
| C=CC[C@@H]1C=C[C@H](ON=C[C@@H](C)[C@H](OCc2ccccc2)C(C)C)[C@@H](CO)O1 | 0.0248 |
| C[C@H]1COC(=O)[C@@H]2CCCN2C(=O)[C@@H](C)COC(=O)[C@H](Cc2ccccc2)NC1=O | 0.851 |

* * *

Assay: modulators of HCV replicon luciferase signal, primary screen, HCV replication inhibitor project, Huh7 cells, luciferase reporter (AID 1109);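 also: huh7 hepatoma cells harbouring a luciferase neomycin HCV replicon reporter; luciferase luminescence as measure of HCV replicon replication; test concentration not given here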
Conditions: 48 h, higher = more signal
Label rule, in plain words: z-score of -1 and up is Met, under -1 is Not met.

| molecule | label |
| --- | --- |
| C#CCCCON=C1C[C@@H](O)[C@@H](O)[C@@H]2[C@@H]3C(=O)N(c4ccc(F)cc4F)C(=O)[C@@H]3CC[C@@H]12 | Met |
| CC(CCN1CCCCc2nc(C)c(C)cc21)=NOC[C@@H](C)[C@H](OCc1ccccc1)C(C)C | Met |
| C#CCCCON=C1C[C@@H](O)[C@@H](O)[C@@H]2[C@@H]3C(=O)N(CC)C(=O)[C@@H]3CC[C@@H]12 | Met |
| CCCCC#C[C@@H]1C=C[C@H](OC(C)=O)[C@@H](COC(C)=O)O1 | Not met |
| O=C1CCCC(C2=CCCCC2=O)C1 (stereo not drawn) | Met |
| CCOC(=O)[C@H](CC(C)C)NC(=O)CCC1CC(OC(=O)NCc2cccc3ccccc23)CC2(CCCC(COC(=O)NCCCN3CCCC3=O)O2)O1 (stereo partly drawn) | Not met |
| CO[C@@H]1C=CCC(=O)N[C@@H](C)C(=O)OC[C@@H](OC)[C@H](C)CCCC(=O)OC[C@H]1C | Not met |
| CC[C@@H](c1ccccc1)n1c(=O)n2n(c1=O)[C@H]1[C@H](O)[C@@H]3O[C@@H]3C(=O)[C@H]1CC2 | Not met |
| CC[C@@H](c1ccccc1)n1c(=O)n2n(c1=O)[C@H]1[C@H](O)[C@@H]3O[C@@H]3C(=NOC[C@@H](O)COCc3ccco3)[C@H]1CC2 | Not met |
| CCCCC#C[C@@H]1C=C[C@H](Oc2ccc(C(=O)OC)cc2)[C@@H](COC(=O)OCC)O1 | Not met |
| CCCNC(=O)OC[C@H]1O[C@H](CCON=C(C)CCN2CCCc3nc(C)c(C)cc32)C=C[C@@H]1Oc1ccc(OC)cc1 | Not met |
| CCOC(=O)CCN1C(=O)[C@H]2[C@H]3[C@H](O)[C@H](O)CC(=NNC(=O)OCc4ccccc4)[C@@H]3CC[C@H]2C1=O | Met |

* * *

Tested on: Human papillomavirus type 1a E7 protein (residues 1-88)
Experiment: HPV1a E7 small-molecule binders, primary screen, biochemical, small-molecule microarray, residues 1-88, 635 nm (AID 1129)
Settings: small-molecule microarray binding, fluorescence 635 nm; higher = more signal

| smiles.entry | composite z-score |
| --- | --- |
| COC(=O)[C@@H]1CC[C@H](C)[C@@H](c2ccc(C)cc2)N1C(=O)c1ccc(C=NO[C@@H]2O[C@H](COC(C)=O)[C@@H](OC(C)=O)[C@H](OC(C)=O)[C@H]2OC(C)=O)cc1 | 0.68 |
| CCOC(=O)CCN1C(=O)[C@H]2[C@H]3[C@H](O)[C@H](O)CC(=NNC(=O)OCc4ccccc4)[C@@H]3CC[C@H]2C1=O | 0.687 |
| COc1ccc(COC(=O)NN=C2C[C@@H](O)[C@@H](O)[C@@H]3[C@@H]4C(=O)N(c5ccc(F)cc5F)C(=O)[C@@H]4CC[C@H]23)cc1 | -0.199 |
| C[C@@H]1CC[C@H]2C(=O)O[C@@H](Cc3ccccc3)CN2[C@H]1c1ccc(Br)cc1 | 0.688 |
